Cited source for all entries: PubChem BioAssay (NCI)

# Tested on: RXF 393 renal
# measurementDescription: NCI-60 one-dose screen, 48 h (100 = growth as untreated, 0 = no growth, -100 = all killed)
# conditionLabel: 10 µM unless noted
Compounds without any hit were thinned out: in the full panel of roughly 83,000, 20% have a hit.
growth below 60% gives class 0; growth at or above it gives class 1.

Please review the entries below; each comes with its answer.
INSERT INTO assay_data (compound, grouplabel) VALUES
  ('Cc1cccnc1NC(=S)Nc1ncccc1C', 'class 1'),
  ('COP(=O)(OC)C(C)(C)CC(=O)CC(C#N)(C#N)C(C#N)C#N', 'class 1'),
  ('O=C(CCCCCCN1CC(=O)N2[C@H](c3cc(Br)cs3)c3[nH]c4ccccc4c3C[C@H]2C1=O)NO', 'class 0'),
  ('C=CCn1c(SCC(=O)Nc2ccc(C(=O)/C=C/c3cc4cc(OC)ccc4nc3Cl)cc2)nnc1-c1ccc(Br)cc1', 'class 1'),
  ('CCc1ccc(Oc2cn[nH]c2-c2ccc(OCCc3ccc(F)cc3)cc2O)cc1', 'class 1'),
  ('COc1ccc(CC(C#N)c2cc3ccccc3[nH]2)cc1 (stereo not given)', 'class 1'),
  ('O=C(Cn1c(=O)sc2ccccc21)NNS(=O)(=O)c1ccccc1[N+](=O)[O-]', 'class 1'),
  ('O=C1Nc2ccc(I)cc2C1=O', 'class 1'),
  ('CN1CCN(Cc2ccc(NC(=O)c3cncc(C#Cc4cnc(N)c5ccccc45)c3)cc2C(F)(F)F)CC1', 'class 0'),
  ('CNC(=O)c1cc(Oc2ccc3c(c2)sc2nc(-c4cc(OC)c(OC)c(OC)c4)cn23)ccn1', 'class 1');

[ask] For this compound, is measured growth 60% or higher? Oc1c(Cl)cc(Cl)c2ccc(Cn3cc(-c4cc(C(F)(F)F)cc(C(F)(F)F)c4)nn3)nc12
[reply] class 0

[ask] Form field: growth at least 60%? Entry: Cc1ccc(-c2nc(N3CCNCC3)c3oc(-c4ccccc4)nc3n2)cc1
[reply] class 0

[ask] Hello, I need to know if CC1(C)CCC(S(=O)(=O)c2ccc3c(c2)/C(=N\O)c2cc(S(=O)(=O)N4CCC(O)(c5cccc(C(F)(F)F)c5)CC4)ccc2-3)CC1 has measured growth not below 60%. Thanks!
[reply] class 0

[ask] Confirm if growth reported for the compound CCn1c(=S)[nH]c2c(=O)n(C)c(=O)n(C)c21 is 60% or above.
[reply] class 1

----------
# System: LOX IMVI melanoma
# measurementDescription: NCI-60 one-dose screen, 48 h (100 = growth as untreated, 0 = no growth, -100 = all killed)
# conditionLabel: 10 µM unless noted
Compounds without any hit were thinned out: in the full panel of roughly 83,000, 20% have a hit.
readoutKind: growth (%)
Answers are plain numbers, in %.

Consider the following illustrative entries.
INSERT INTO assay_data (compound, readoutkind, endpointunit, valueobserved) VALUES
  ('Cc1nc(N2CCOCC2)sc1S(N)(=O)=O', 'growth', '%', 95.8),
  ('COC(=O)c1c2c(c(C)[n+]([O-])c1C)C(=O)C=C(NCc1ccc(Br)cc1)C2=O', 'growth', '%', -75.7),
  ('O=C(O)c1ccc(-n2cc(/C=N/Nc3ccc(F)cc3)c(-c3cc4ccccc4oc3=O)n2)cc1', 'growth', '%', 46.6),
  ('Cc1c(-n2nnc(-c3nc4ccccc4s3)c2N)c(=O)n(-c2ccccc2)n1C', 'growth', '%', 93.1),
  ('COc1ccc(C2=Nc3c/c(=C\c4c(O)[nH]c5ccc(Cl)cc45)ccc3=N2)cc1', 'growth', '%', 9.27),
  ('C[C@]12CC[C@@H]3c4ccc(O)c([N+](=O)[O-])c4CC[C@H]3[C@@H]1CCC2=O', 'growth', '%', 90.7);

List reported growth for each of these compounds:
1. CCc1ccc(Oc2cn[nH]c2-c2ccc(OCCc3ccc(F)cc3)cc2O)cc1
2. CCOC(=O)C1=NN(c2ccccc2)C(=O)/C1=C\N1C(=O)CC(=O)NC1=S
3. O=C1N(Cc2ccccc2Cl)c2ccccc2C12NN=C(c1cccc(Cl)c1)S2 (stereo not given)
4. O=C(Nc1nn(-c2ccc(Cl)cc2Cl)nc1-c1ccccc1)c1ccccc1

[reply]
1. 86.8
2. 93.7
3. -19.4
4. 82.5
